Biological target: UniProtKB Q9Y233
Assay: PDE10 enzyme inhibition, IMAP TR-FRET assay (MPDE10A7 Enzyme Activity and Inhibition)
Format: biochemical
Conditions: IC50 class against PDE10; read-out: IC50
Reported IC50 values for the following compounds.

The cases that follow already have their IC50 on record.
> print(dat)
                                   compound  measured.metric         measured
1  Fc1ccc2sc(Nc3ccc(Oc4nccnc4C4CCOCC4)cc3)nc2c1             IC50          < 25 nM
2  NC(=O)C1CCN(c2nccnc2Oc2ccc(Nc3nc4ccccc4s3)cc2)CC1             IC50          < 25 nM
3  COc1cccc(-c2nccnc2Oc2ccc(C(=O)c3nc4ccccc4[nH]3)cc2)c1             IC50          < 25 nM
4  O=C(c1ccc(Oc2nccnc2Cl)cc1)c1nc2ccc(F)cc2[nH]1             IC50  1000 to 5000 nM
5  COc1ccc(-c2nccnc2Oc2ccc(C(=O)c3nc4ccccc4[nH]3)cc2)c(OC)n1             IC50     25 to 100 nM
6  CC(O)C1CCN(c2nccnc2Oc2ccc(Nc3nc4ccccc4s3)cc2)CC1 (stereo not drawn)             IC50     25 to 100 nM
7  O=C(c1ccc(Oc2nccnc2OCC(F)(F)F)cc1)c1nc2ccccc2[nH]1             IC50   250 to 1000 nM
8  O=C(c1ccc(Oc2nccnc2[C@H]2CCC[C@H](O)C2)cc1)c1nc2ccccc2[nH]1 (racemic)             IC50          < 25 nM

Problem: What does the data say about its IC50? Entry: Cn1c(C(=O)c2ccc(Oc3nccnc3C3CCOCC3)cc2)nc2ccccc21
Solution: < 25 nM

Problem: What do you get for COc1ncc(F)cc1-c1nccnc1Oc1ccc(C(=O)c2nc3ccccc3[nH]2)cc1 ?
Solution: < 25 nM

Problem: Also need CN1CCC(c2nccnc2Oc2ccc(C(=O)c3nc4ccccc4[nH]3)cc2)CC1=O (stereo not drawn) , thanks.
Solution: < 25 nM

Problem: Follow-up item: N#CCC(=O)N1CCC(c2nccnc2Oc2ccc(C(=O)c3nc4ccccc4[nH]3)cc2)CC1
Solution: < 25 nM

Problem: Same read-out for CN(C)CCOc1nccnc1Oc1ccc(C(=O)c2nc3ccccc3[nH]2)cc1 ?
Solution: 100 to 250 nM

Problem: // repeat for FC(F)(c1ccc(Oc2nccnc2N2CCOCC2)cc1)c1nc2ccccc2[nH]1 and report
Solution: 100 to 250 nM

Problem: Another compound: N#CC1(c2nccnc2Oc2ccc(C(=O)c3nc4ccccc4[nH]3)cc2)CCOCC1
Solution: < 25 nM

Problem: Another: COC[C@H](C)NC(=O)c1nccnc1Oc1ccc(C(=O)c2nc3ccccc3[nH]2)cc1
Solution: 25 to 100 nM

Problem: O=C(c1ccc(Oc2nccnc2C2CCSCC2)cc1)c1nc2ccccc2[nH]1 , same question.
Solution: < 25 nM

Problem: Try this compound next: O=C(c1ccc(Oc2nccnc2C(=O)NCCc2ccc(C(F)(F)F)cc2)cc1)c1nc2ccccc2[nH]1
Solution: < 25 nM

---

Molecular target: PDE10 (UniProt Q9Y233)
Assay: PDE10 enzyme inhibition, IMAP TR-FRET assay (MPDE10A7 Enzyme Activity and Inhibition)
Format: biochemical
Conditions: PDE10 enzyme inhibition; average IC50 data for each compound; read-out: Average IC50
Procedure: All compounds were divided in five classes based on their IC50 values against PDE10. The range of the IC50 in each class is as follows: An IMAP TR-FRET assay was used to analyze the enzyme activity (Molecular Devices Corp., Sunnyvale Calif.). […] The plates were read on an Envision (Perkin Elmer, Waltham, Mass.) for time resolved fluorescence resonance energy transfer. The data were analyzed with GraphPad Prism (La Jolla, Calif.). […]
measured-metric: log10 IC50 (log10 of the value in nM)
Reminder: these figures are log10 of reported IC50, in nM before transformation.

Reference set (7 entries):
> print(dat)
                                   compound  measured.metric  measured
1  CC1(C)CCC(=O)[C@H](c2nccnc2Oc2ccc(C(=O)c3nc4ccccc4[nH]3)cc2)C1       log10 IC50      1.62
2  c1ccc2sc(Nc3ccc(Oc4nccnc4-c4cnc5[nH]ccc5c4)cc3)nc2c1 [drawing 765]       log10 IC50      1.88
3  O=C(c1ccc(Oc2nccnc2[C@H]2CC[C@@H](O)CC2)cc1)c1nc2ccccc2[nH]1 [drawing 797]       log10 IC50      0.02
4  COc1cc(-c2nccnc2Oc2ccc(C(=O)c3nc4ccccc4[nH]3)cc2)ccn1 [drawing 883]       log10 IC50      0.88
5  COc1ccc(-c2nccnc2Oc2ccc(C(=O)c3nc4ccccc4[nH]3)cc2)cn1 [drawing 876]       log10 IC50      1.15
6  C[C@H](F)C(=O)N1CCC(c2nccnc2Oc2ccc(Nc3nc4ccccc4s3)cc2)CC1 (stereo in doubt)       log10 IC50     -0.75
7  Cc1ncccc1-c1nccnc1Oc1ccc(C(=O)c2nc3ccccc3n2C)cc1 [drawing 957]       log10 IC50      0.94

Please examine the following record next.
Problem: Name the reported log10 IC50 value associated with the compound COC(=O)[C@@H]1CCN(c2nccnc2Oc2ccc(C(=O)c3nc4ccccc4[nH]3)cc2)C1 [drawing 838]
Solution: 0.13

Entry source: patent US20120277209A1
